Form field: AC50 (one value per entry).
molecular target: Sodium-dependent noradrenaline transporter (Homo sapiens, UniProt P23975); further: assay procedure not described here
Sequence (P23975 whole entry): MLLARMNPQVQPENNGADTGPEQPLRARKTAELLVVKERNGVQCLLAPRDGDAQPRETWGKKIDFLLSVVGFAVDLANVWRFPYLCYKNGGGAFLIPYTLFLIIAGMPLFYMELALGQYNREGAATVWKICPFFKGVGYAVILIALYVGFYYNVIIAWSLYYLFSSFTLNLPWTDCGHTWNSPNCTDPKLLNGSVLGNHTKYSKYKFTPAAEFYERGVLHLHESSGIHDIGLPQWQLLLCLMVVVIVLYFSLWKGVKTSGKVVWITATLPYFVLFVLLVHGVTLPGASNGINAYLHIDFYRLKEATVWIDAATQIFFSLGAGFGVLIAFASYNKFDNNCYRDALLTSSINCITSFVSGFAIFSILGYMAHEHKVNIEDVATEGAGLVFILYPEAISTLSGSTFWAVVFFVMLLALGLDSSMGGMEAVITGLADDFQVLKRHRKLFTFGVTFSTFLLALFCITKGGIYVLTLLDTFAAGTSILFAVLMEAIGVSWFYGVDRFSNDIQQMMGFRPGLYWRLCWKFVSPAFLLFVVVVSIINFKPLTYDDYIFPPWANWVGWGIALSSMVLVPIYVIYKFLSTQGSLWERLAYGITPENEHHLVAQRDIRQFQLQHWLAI

Sample records with AC50:
COMPOUND: COc1ccc2c3c1O[C@H]1C(=O)CC[C@@]4(O)[C@@H](C2)N(C)CC[C@]314
SYSTEM_UNDER_TEST: Sodium-dependent noradrenaline transporter (Homo sapiens, UniProt P23975); further: assay procedure not described here
RESULT: > 30 µM

COMPOUND: Cc1cn([C@H]2C=C[C@@H](CO)O2)c(=O)[nH]c1=O
SYSTEM_UNDER_TEST: Sodium-dependent noradrenaline transporter (Homo sapiens, UniProt P23975); further: assay procedure not described here
RESULT: > 10 µM

COMPOUND: NC(=O)OCC(COC(N)=O)c1ccccc1 [FELBAMATE]
SYSTEM_UNDER_TEST: Sodium-dependent noradrenaline transporter (Homo sapiens, UniProt P23975); further: assay procedure not described here
RESULT: > 10 µM

COMPOUND: O=C(O)[C@H](CC(=O)N1C[C@H]2CCCC[C@H]2C1)Cc1ccccc1 [MITIGLINIDE]
SYSTEM_UNDER_TEST: Sodium-dependent noradrenaline transporter (Homo sapiens, UniProt P23975); further: assay procedure not described here
RESULT: > 10 µM

COMPOUND: C/C(O)=C(\C#N)C(=O)Nc1ccc(C(F)(F)F)cc1 [TERIFLUNOMIDE]
SYSTEM_UNDER_TEST: Sodium-dependent noradrenaline transporter (Homo sapiens, UniProt P23975); further: assay procedure not described here
RESULT: > 30 µM

Incoming: Given C#C[C@]1(O)CC[C@H]2[C@@H]3[C@H](C)CC4=C(CCC(=O)C4)[C@H]3CC[C@@]21C , state its recorded AC50.
Outgoing: > 30 µM

Incoming: Ok, now CC/C(=C(\c1ccccc1)c1ccc(OCCN(C)C)cc1)c1ccccc1
Outgoing: 8.83 µM

Incoming: Ok, now c1ccc([C@H]2CN3CCSC3=N2)cc1
Outgoing: > 30 µM

Incoming: Ok, now COc1ccccc1OCCNCC(O)c1ccc(C)c(S(N)(=O)=O)c1 (stereo not drawn)
Outgoing: > 30 µM

Incoming: Ok, now CCCCCNC(=N)N/N=C/c1c[nH]c2ccc(OC)cc12
Outgoing: 0.495 µM

###

The listing below reports AC50 for compounds tested on UniProt:P08913.
Sequence (P08913 whole entry): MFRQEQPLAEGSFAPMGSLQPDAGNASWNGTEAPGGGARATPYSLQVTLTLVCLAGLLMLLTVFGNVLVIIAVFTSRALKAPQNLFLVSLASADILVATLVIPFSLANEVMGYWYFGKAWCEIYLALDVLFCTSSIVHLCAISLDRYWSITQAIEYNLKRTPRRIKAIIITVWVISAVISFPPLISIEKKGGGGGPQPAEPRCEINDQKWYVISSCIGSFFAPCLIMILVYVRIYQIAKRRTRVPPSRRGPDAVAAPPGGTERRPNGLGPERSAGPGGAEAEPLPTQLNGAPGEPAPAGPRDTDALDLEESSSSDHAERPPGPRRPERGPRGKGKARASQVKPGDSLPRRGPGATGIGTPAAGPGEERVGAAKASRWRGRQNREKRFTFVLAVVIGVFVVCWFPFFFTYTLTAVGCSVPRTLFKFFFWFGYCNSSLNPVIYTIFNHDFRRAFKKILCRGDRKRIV

Sample records with AC50:
COMPOUND: COc1cc2c3cc1Oc1cc(ccc1O)C[C@@H]1c4c(cc(OC)c(O)c4Oc4ccc(cc4)C[C@@H]3N(C)CC2)CC[N+]1(C)C [TUBOCURARINE]
PROPERTY: AC50
RESULT: > 30 µM
--
COMPOUND: CCC(=O)NCC[C@@H]1CCc2ccc3c(c21)CCO3 [RAMELTEON]
PROPERTY: AC50
RESULT: > 30 µM

Incoming: Given CC[C@H]1CN2CC[C@H]1C[C@H]2[C@H](O)c1ccnc2ccc(OC)cc12 [HYDROQUININE] , state its recorded AC50.
Outgoing: 3.59 µM

Incoming: Ok, now CCN(CC)CCOC(=O)C(c1ccccc1)C1CCCCC1 (stereo not given) [DROFENINE]
Outgoing: 24.1 µM

Incoming: Ok, now CS(=O)(=O)c1ccc(C2=C(c3ccccc3)C(=O)OC2)cc1 [ROFECOXIB]
Outgoing: > 30 µM

###

The listing below reports AC50 for compounds tested on 5-hydroxytryptamine receptor 2B (Homo sapiens, UniProt P41595). Further: assay procedure not described here.
Sequence (P41595 whole entry): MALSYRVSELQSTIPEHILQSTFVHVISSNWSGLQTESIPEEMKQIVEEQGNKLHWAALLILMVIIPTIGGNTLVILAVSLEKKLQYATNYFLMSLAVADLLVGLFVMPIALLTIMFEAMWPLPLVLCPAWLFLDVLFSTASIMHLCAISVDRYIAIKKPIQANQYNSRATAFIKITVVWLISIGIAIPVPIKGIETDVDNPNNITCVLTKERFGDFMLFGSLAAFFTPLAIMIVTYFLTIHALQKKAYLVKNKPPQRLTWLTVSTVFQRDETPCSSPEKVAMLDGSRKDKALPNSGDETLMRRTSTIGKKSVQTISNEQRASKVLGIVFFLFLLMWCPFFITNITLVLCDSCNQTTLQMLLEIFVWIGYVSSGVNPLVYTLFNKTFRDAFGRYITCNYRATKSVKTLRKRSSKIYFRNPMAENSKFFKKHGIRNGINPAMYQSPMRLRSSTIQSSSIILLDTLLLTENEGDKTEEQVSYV

Sample records with AC50:
COMPOUND: CCOc1ccc(Cc2cc([C@@H]3O[C@H](CO)[C@@H](O)[C@H](O)[C@H]3O)ccc2Cl)cc1
PROPERTY: AC50
RESULT: > 10 µM
//
COMPOUND: COc1cc2nc(N3CCN(C(=O)c4ccco4)CC3)nc(N)c2cc1OC
PROPERTY: AC50
RESULT: 2.57 µM
//
COMPOUND: NCC(CC(=O)O)c1ccc(Cl)cc1 (stereo not given)
PROPERTY: AC50
RESULT: > 10 µM
//
COMPOUND: CCc1c(Cl)c(O)c(Cl)c(O)c1C(=O)O[C@H]1[C@H](O)[C@H](OC)[C@H](OC/C2=C\C=C\C[C@H](O)/C(C)=C/[C@H](CC)[C@@H](O[C@@H]3OC(C)(C)[C@@H](OC(=O)C(C)C)[C@H](O)[C@@H]3O)/C(C)=C/C(C)=C/C[C@@H]([C@@H](C)O)OC2=O)O[C@@H]1C
PROPERTY: AC50
RESULT: > 10 µM

Note: attention shifts to another entry.
Incoming: Given C[C@H](N)[C@H](O)c1cccc(O)c1 , state its recorded AC50.
Outgoing: > 30 µM

###

The listing below reports AC50 for compounds tested on B2 bradykinin receptor (Homo sapiens, UniProt P30411). Further: assay procedure not described here.
Sequence (P30411 whole entry): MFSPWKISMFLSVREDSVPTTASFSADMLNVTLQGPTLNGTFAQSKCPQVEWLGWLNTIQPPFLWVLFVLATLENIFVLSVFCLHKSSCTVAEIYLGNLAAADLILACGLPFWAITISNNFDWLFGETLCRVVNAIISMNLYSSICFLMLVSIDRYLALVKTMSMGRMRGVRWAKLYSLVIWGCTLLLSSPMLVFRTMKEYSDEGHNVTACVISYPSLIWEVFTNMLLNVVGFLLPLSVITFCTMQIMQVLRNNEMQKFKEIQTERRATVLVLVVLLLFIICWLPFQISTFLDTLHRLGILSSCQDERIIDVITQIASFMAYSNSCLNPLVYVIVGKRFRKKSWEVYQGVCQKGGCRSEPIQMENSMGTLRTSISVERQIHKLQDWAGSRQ

Sample records with AC50:
COMPOUND: COc1cccc(C2(O)CCCCC2CN(C)C)c1 (configuration not stated) [TRAMADOL]
RESULT: > 30 µM

COMPOUND: CC(C)(C)c1cc(C(C)(C)C)c(NC(=O)c2c[nH]c3ccccc3c2=O)cc1O [IVACAFTOR]
RESULT: > 30 µM

COMPOUND: NC(=O)OCC(COC(N)=O)c1ccccc1 [FELBAMATE]
RESULT: > 10 µM

Incoming: Given CCCc1nc(C(C)(C)O)c(C(=O)OCc2oc(=O)oc2C)n1Cc1ccc(-c2ccccc2-c2nnn[nH]2)cc1 [OLMESARTAN MEDOXOMIL] , state its recorded AC50.
Outgoing: > 30 µM

Incoming: Ok, now C=CCC1(C(C)CC)C(=O)NC(=O)NC1=O (configuration not stated) [TALBUTAL]
Outgoing: > 10 µM

Incoming: Ok, now CCCC(=O)O[C@]1(C(=O)CO)CC[C@H]2[C@@H]3CCC4=CC(=O)CC[C@]4(C)[C@H]3[C@@H](O)C[C@@]21C [HYDROCORTISONE BUTYRATE]
Outgoing: > 10 µM

Incoming: Ok, now CCC(CC)(CC(=O)Nc1cccc(/C=C/c2nc(C3CCC3)cs2)c1)C(=O)O
Outgoing: > 30 µM

###

Form field: AC50 (one value per entry).
biological target: Gamma-aminobutyric acid receptor subunit alpha-1 (Rattus norvegicus, UniProt P62813); further: assay procedure not described here
Sequence (P62813 whole entry): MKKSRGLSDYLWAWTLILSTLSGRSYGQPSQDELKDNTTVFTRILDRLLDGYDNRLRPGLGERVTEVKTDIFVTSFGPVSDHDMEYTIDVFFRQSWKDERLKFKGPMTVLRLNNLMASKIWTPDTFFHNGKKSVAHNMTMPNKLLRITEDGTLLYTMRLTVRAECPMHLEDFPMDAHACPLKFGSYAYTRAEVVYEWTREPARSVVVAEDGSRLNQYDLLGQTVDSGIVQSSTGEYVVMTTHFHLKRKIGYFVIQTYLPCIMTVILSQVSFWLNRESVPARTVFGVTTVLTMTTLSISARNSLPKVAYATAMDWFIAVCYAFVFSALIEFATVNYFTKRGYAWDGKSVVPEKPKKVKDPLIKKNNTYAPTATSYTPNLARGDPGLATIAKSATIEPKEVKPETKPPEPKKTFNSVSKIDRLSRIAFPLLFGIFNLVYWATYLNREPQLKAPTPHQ

Sample records with AC50:
MOLECULE: COc1ccc2c3c1O[C@H]1C(=O)CC[C@@]4(O)[C@@H](C2)N(C)CC[C@]314 [OXYCODONE]
AC50: > 30 µM

MOLECULE: CN(C)CCC=C1c2ccccc2C=Cc2ccccc21 [CYCLOBENZAPRINE]
AC50: > 10 µM

MOLECULE: Clc1ccc2nsnc2c1NC1=NCCN1 [TIZANIDINE]
AC50: > 10 µM

MOLECULE: CN1CCC(=C2c3ccccc3CCc3sccc32)CC1 [PIZOTYLINE]
AC50: > 10 µM

MOLECULE: O=C(O)C1=C(CSc2nnnn2CS(=O)(=O)O)CS[C@@H]2[C@H](NC(=O)[C@H](O)c3ccccc3)C(=O)N12 [CEFONICID]
AC50: > 30 µM

MOLECULE: CCOC(=O)[C@H](CCc1ccccc1)N[C@@H](C)C(=O)N1[C@H](C(=O)O)C[C@@H]2CCC[C@@H]21
AC50: > 10 µM

Note: attention shifts to another entry.
Incoming: Given NC(=O)CN1CC(O)CC1=O (configuration not stated) [OXIRACETAM] , state its recorded AC50.
Outgoing: > 30 µM

###

The listing below reports AC50 for molecules tested on Kappa-type opioid receptor (Homo sapiens, UniProt P41145). Further: assay procedure not described here.
Sequence (P41145 whole entry): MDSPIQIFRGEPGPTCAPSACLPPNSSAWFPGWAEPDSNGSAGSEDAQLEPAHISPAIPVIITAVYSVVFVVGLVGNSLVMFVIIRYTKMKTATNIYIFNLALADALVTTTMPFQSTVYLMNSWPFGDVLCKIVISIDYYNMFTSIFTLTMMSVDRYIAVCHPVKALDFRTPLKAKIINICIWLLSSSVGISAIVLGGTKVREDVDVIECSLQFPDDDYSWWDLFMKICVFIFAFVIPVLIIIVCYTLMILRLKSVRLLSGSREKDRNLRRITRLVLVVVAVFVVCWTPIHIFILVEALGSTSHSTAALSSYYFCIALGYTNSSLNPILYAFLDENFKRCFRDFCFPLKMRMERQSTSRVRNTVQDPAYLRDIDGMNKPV

Sample records with AC50:
MOLECULE: CN1C(=O)C(O)N=C(c2ccccc2)c2cc(Cl)ccc21 (stereo unspecified)
SYSTEM_UNDER_TEST: Kappa-type opioid receptor (Homo sapiens, UniProt P41145); further: assay procedure not described here
AC50: 9.19 µM
//
MOLECULE: COc1ccccc1N1CCN(CC(O)COc2cccc3ccccc23)CC1 (stereo unspecified)
SYSTEM_UNDER_TEST: Kappa-type opioid receptor (Homo sapiens, UniProt P41145); further: assay procedure not described here
AC50: 2.2 µM
//
MOLECULE: COc1cc2nc(N(C)CCCNC(=O)C3CCCO3)nc(N)c2cc1OC (stereo unspecified)
SYSTEM_UNDER_TEST: Kappa-type opioid receptor (Homo sapiens, UniProt P41145); further: assay procedure not described here
AC50: > 30 µM
//
MOLECULE: NC(=O)CN1CC(O)CC1=O (stereo unspecified)
SYSTEM_UNDER_TEST: Kappa-type opioid receptor (Homo sapiens, UniProt P41145); further: assay procedure not described here
AC50: > 30 µM
//
MOLECULE: COc1cc2nc(N3CCN(C(=O)c4ccco4)CC3)nc(N)c2cc1OC
SYSTEM_UNDER_TEST: Kappa-type opioid receptor (Homo sapiens, UniProt P41145); further: assay procedure not described here
AC50: 4.94 µM
//
MOLECULE: C=CCN1C[C@H](C(=O)N(CCCN(C)C)C(=O)NCC)C[C@@H]2c3cccc4[nH]cc(c34)C[C@H]21
SYSTEM_UNDER_TEST: Kappa-type opioid receptor (Homo sapiens, UniProt P41145); further: assay procedure not described here
AC50: > 10 µM
//
MOLECULE: CC1(C)O[C@@H]2C[C@H]3[C@@H]4CCC5=CC(=O)C=C[C@]5(C)[C@H]4[C@@H](O)C[C@]3(C)[C@]2(C(=O)CO)O1 [DESONIDE]
SYSTEM_UNDER_TEST: Kappa-type opioid receptor (Homo sapiens, UniProt P41145); further: assay procedure not described here
AC50: > 10 µM
//
MOLECULE: CC[C@H]1OC(=O)[C@H](C)[C@@H](O[C@H]2C[C@@](C)(OC)[C@@H](O)[C@H](C)O2)[C@H](C)[C@@H](O[C@@H]2O[C@H](C)C[C@H](N(C)C)[C@H]2O)[C@](C)(O)C[C@@H](C)CN(C)[C@H](C)[C@@H](O)[C@]1(C)O
SYSTEM_UNDER_TEST: Kappa-type opioid receptor (Homo sapiens, UniProt P41145); further: assay procedure not described here
AC50: > 10 µM

Incoming: Given CCCC1O[C@@H]2C[C@H]3[C@@H]4CCC5=CC(=O)C=C[C@]5(C)[C@H]4[C@@H](O)C[C@]3(C)[C@]2(C(=O)CO)O1 (stereo partly specified) [BUDESONIDE] , state its recorded AC50.
Outgoing: > 10 µM

Incoming: Ok, now COc1ccc2c3c1O[C@H]1[C@@H](O)CC[C@H]4[C@@H](C2)N(C)CC[C@@]341 [DIHYDROCODEINE]
Outgoing: > 30 µM

Incoming: Ok, now C[C@@H](O)[C@H]1C(=O)N2C(C(=O)O)=C(S[C@@H]3CN[C@H](C(=O)N(C)C)C3)[C@H](C)[C@H]12
Outgoing: > 10 µM

Incoming: Ok, now O=C1C(O)=C([C@H]2CC[C@H](c3ccc(Cl)cc3)CC2)C(=O)c2ccccc21
Outgoing: > 30 µM

Incoming: Ok, now CN1CCN(CC/C=C2/c3ccccc3Sc3ccc(S(=O)(=O)N(C)C)cc32)CC1
Outgoing: 11.6 µM

Where do these numbers come from? They come from ChEMBL document CHEMBL5291721.
